experimental.target: Transient receptor potential cation channel subfamily M member 8 (Mus musculus) (UniProt Q8R4D5)
Sequence (Q8R4D5 whole entry): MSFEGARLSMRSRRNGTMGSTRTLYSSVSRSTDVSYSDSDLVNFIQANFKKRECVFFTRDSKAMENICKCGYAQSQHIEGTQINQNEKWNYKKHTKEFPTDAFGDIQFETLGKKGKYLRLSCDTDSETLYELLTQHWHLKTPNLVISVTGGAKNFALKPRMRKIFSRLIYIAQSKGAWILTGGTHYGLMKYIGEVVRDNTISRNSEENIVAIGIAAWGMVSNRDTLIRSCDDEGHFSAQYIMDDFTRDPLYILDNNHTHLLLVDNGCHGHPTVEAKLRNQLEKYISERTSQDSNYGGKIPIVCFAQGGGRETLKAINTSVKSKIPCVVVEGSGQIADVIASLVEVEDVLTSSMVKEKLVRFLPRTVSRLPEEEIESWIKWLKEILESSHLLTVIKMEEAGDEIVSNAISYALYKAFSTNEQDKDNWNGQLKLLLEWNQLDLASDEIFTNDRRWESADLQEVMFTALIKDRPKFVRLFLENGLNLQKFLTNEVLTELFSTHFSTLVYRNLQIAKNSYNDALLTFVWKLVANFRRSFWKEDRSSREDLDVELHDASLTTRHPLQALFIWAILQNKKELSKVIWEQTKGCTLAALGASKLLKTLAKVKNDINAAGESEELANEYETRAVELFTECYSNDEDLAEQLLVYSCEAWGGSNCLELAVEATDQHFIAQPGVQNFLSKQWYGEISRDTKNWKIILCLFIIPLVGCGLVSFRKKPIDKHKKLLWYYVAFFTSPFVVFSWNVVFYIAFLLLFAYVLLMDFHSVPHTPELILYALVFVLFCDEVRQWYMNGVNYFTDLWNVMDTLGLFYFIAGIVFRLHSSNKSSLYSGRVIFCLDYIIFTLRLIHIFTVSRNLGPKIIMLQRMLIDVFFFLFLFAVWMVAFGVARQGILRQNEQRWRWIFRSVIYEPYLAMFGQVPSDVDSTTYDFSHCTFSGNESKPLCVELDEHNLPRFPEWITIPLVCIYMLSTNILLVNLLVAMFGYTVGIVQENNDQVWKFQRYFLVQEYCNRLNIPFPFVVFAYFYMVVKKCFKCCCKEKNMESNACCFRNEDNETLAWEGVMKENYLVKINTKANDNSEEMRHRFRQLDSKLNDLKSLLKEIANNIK
protocol.text: Antagonist activity at mouse TRPM8 expressed in HEK293 cells assessed as inhibition of menthol mediated calcium flux at 0.5 to 50 preincubated for 60 mins followed by menthol addition by Fluo-4 NW dye based fluorometric assay
Format: cell-based
The source made the active and inactive calls. The rule behind the calls is not given here.
Possible outcomes: y for active, n for inactive

# structure.smiles.string, discrete.label
measured = [
    ("c1ccc2c(NCCc3c[nH]c4ccccc34)cccc2c1", "n"),
    ("c1cc(CNCCc2c[nH]c3ccccc23)c2cccnc2c1", "n"),
    ("c1ccc(CN(CCc2c[nH]c3ccccc23)Cc2ccccc2)cc1", "y"),
    ("c1cc(CNCCc2c[nH]c3ccccc23)c2ccncc2c1", "n"),
    ("CN(CCc1cn(C)c2ccccc12)Cc1ccc(Oc2ccccc2)cc1", "y"),
    ("c1ccc2cc(NCCc3c[nH]c4ccccc34)ccc2c1", "n"),
]

---

experimental.target: Transient receptor potential cation channel subfamily M member 8 (Rattus norvegicus)
Sequence (Q8R455 whole entry): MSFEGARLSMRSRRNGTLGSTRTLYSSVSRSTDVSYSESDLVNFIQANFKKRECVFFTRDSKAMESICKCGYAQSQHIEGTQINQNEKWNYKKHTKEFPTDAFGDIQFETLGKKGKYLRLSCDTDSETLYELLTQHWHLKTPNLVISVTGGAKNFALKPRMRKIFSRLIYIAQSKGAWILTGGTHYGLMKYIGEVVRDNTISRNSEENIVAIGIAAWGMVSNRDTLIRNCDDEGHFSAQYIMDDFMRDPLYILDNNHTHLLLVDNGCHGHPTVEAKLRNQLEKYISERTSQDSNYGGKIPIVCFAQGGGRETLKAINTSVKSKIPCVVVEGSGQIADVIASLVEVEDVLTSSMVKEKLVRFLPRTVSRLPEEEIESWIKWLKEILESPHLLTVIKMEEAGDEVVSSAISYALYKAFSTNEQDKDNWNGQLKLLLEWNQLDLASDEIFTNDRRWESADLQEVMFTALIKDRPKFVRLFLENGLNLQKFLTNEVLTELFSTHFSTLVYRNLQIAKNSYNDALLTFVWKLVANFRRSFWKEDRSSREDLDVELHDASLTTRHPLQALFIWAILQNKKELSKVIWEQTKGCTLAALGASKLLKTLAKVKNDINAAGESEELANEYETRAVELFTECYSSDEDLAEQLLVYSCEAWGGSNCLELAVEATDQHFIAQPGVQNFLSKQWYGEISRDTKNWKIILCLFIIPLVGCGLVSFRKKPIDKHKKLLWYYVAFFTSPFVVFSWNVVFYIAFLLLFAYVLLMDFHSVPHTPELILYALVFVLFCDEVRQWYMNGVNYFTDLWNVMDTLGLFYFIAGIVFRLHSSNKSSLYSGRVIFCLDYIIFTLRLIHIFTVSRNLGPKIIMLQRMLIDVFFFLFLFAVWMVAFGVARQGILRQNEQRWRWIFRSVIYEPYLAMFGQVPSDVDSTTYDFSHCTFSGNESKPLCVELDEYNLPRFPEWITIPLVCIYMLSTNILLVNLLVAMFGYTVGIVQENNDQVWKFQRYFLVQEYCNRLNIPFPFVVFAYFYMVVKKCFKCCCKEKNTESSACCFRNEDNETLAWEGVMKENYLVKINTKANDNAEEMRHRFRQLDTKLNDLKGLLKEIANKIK
protocol.text: Antagonist activity at rat TRPM8 expressed in HEK293 cells assessed as inhibition of menthol mediated current amplitude at +80 mV holding potential by whole cell patch-clamp assay
pIC50: −log10 of the molar value.
Recorded pIC50, one value per entry.
property.measured: pIC50

# structure.smiles.string, endpoint.value
measured = [
    ("c1ccc(CN(CCc2c[nH]c3ccccc23)Cc2ccccc2)cc1", 6.44),
    ("CC(C)(C)c1ccc(NC(=O)N2CCN(c3ncccc3Cl)CC2)cc1", 6.32),
]

---

experimental.target: Transient receptor potential cation channel subfamily M member 8 (Mus musculus) (UniProt Q8R4D5)
protocol.text: Agonist activity at mouse TRPM8 expressed in HEK293 cells assessed as increase in calcium flux at 50 uM after 60 mins by Fluo-4 NW dye based fluorometric assay relative to menthol
Type: cell-based
Recorded fold change (FC), one value per entry.

# structure.smiles.string, fold change (FC)
records = [
    ("c1ccc(Oc2ccc(CNCCc3c[nH]c4ccccc34)cc2)cc1", 3),
    ("c1ccc2c(CNCCc3c[nH]c4ccccc34)cccc2c1", 3),
    ("COc1ccc(CNCCc2cn(C)c3ccccc23)cc1", 2),
    ("Cn1cc(CCNCc2ccc(Cl)cc2)c2ccccc21", 2),
]
